The listing below reports Ki for molecules tested on Nitric oxide synthase 3 (Bos taurus, UniProt P29473).
Sequence (P29473 whole entry): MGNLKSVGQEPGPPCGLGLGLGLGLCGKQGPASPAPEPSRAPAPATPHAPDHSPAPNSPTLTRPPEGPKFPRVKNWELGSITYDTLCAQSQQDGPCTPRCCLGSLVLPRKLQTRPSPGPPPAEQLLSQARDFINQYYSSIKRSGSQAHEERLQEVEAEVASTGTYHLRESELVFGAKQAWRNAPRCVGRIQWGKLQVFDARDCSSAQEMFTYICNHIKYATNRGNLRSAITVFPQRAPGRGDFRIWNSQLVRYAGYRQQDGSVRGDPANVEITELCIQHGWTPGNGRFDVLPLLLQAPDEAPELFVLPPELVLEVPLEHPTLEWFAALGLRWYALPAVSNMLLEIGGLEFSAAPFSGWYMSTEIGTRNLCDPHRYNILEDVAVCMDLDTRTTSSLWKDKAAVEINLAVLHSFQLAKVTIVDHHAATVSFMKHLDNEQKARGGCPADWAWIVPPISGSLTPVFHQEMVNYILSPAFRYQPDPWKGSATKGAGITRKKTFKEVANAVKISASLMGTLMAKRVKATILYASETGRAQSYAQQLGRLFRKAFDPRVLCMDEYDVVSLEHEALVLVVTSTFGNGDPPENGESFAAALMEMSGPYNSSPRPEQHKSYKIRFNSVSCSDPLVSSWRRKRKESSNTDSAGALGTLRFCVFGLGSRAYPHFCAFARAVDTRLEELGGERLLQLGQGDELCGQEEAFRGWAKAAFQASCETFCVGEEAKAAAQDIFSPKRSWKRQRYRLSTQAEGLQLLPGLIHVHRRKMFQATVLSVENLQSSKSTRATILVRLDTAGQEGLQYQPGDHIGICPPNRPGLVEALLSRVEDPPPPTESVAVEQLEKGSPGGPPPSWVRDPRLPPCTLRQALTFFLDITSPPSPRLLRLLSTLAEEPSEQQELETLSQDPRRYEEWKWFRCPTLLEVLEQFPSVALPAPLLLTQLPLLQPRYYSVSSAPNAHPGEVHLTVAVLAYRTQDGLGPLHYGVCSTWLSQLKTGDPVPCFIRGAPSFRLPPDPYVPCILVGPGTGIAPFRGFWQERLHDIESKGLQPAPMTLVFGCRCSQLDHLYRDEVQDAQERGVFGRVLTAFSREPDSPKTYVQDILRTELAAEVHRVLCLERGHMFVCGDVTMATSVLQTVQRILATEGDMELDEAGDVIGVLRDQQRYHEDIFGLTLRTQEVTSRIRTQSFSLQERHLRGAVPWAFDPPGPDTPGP
Reply with just the number (in µM).

>>> number("NC(=O)[C@H]1NCC[C@@H]1NC(=O)[C@@H](N)CCC/N=C(\\N)N[N+](=O)[O-]")
200
>>> number("CN1C[C@H](NC(=O)[C@@H](N)CCC/N=C(\\N)N[N+](=O)[O-])C[C@H]1C(N)=O")
246

For the next question, use this molecule.
Ask: # lookup: Ki of NC(=O)[C@@H]1C[C@@H](NC(=O)[C@@H](N)CCC/N=C(\N)N[N+](=O)[O-])CN1Cc1ccccc1
Result: 159

----------
The listing below reports IC50 for molecules tested on Nitric oxide synthase 1 (Rattus norvegicus).
Sequence (P29476 whole entry): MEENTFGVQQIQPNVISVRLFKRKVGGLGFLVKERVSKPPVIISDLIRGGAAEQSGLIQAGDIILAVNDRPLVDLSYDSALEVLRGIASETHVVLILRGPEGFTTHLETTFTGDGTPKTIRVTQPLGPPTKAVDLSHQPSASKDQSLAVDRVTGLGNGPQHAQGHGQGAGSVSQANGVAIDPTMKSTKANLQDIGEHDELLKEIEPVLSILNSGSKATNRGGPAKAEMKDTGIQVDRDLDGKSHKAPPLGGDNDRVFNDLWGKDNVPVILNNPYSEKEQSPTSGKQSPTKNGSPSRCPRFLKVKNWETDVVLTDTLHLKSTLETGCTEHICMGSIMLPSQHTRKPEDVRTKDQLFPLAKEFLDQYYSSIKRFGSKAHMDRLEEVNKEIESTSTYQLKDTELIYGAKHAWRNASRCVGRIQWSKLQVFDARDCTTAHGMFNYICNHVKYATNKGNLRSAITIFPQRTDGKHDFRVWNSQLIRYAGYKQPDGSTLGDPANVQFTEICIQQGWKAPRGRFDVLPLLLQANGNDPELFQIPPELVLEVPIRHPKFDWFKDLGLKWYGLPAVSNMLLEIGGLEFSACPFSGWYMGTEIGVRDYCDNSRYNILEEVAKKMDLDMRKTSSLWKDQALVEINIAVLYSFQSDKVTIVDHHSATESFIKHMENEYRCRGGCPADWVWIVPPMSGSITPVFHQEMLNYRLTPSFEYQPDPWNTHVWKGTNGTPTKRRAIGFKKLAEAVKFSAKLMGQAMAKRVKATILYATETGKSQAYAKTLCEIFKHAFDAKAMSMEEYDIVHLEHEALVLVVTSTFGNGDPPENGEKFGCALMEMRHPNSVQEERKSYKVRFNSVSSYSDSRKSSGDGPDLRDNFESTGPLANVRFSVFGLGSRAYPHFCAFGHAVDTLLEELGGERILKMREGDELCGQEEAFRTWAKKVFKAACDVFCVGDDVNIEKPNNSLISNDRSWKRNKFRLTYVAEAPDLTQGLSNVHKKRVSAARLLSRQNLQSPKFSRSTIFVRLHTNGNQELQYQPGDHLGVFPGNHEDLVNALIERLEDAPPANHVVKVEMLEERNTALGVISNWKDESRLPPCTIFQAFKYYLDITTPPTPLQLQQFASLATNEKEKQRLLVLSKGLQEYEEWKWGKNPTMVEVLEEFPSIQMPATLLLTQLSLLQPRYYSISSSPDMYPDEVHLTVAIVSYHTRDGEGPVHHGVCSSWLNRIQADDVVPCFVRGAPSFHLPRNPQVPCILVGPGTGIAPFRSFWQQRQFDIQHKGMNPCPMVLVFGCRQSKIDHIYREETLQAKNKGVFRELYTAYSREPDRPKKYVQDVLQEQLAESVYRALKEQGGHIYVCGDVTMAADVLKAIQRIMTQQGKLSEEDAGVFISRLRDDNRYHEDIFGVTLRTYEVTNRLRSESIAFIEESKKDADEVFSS
Reply with just the number (in µM).

>>> number("CN1C[C@H](NC(=O)[C@@H](N)CCC/N=C(\\N)N[N+](=O)[O-])C[C@H]1C(N)=O")
73.5

For the next question, use this molecule.
Ask: Record NC(=O)[C@@H]1C[C@@H](NC(=O)[C@@H](N)CCC/N=C(\N)N[N+](=O)[O-])CN1Cc1ccccc1 : what is its IC50 with Nitric oxide synthase 1 (Rattus norvegicus)?
Result: 2.85

----------
In this section we review reported pKi values for a set of compounds.
- SUBJECT OF TEST: Nitric oxide synthase 1 (Rattus norvegicus)
Recall that pKi is obtained by taking minus log10 of the concentration measured in molar.

>>> number("CN1C[C@H](NC(=O)[C@@H](N)CCC/N=C(\\N)N[N+](=O)[O-])C[C@H]1C(N)=O")
5.07

For the next question, use this compound.
Ask: Record NC(=O)[C@@H]1C[C@@H](NC(=O)[C@@H](N)CCC/N=C(\N)N[N+](=O)[O-])CN1Cc1ccccc1 : what is its pKi with Nitric oxide synthase 1 (Rattus norvegicus)?
Result: 6.48
